# MEASURED_ON: PRMT7 (Homo sapiens)
# Sequence (Q9NVM4 2-692): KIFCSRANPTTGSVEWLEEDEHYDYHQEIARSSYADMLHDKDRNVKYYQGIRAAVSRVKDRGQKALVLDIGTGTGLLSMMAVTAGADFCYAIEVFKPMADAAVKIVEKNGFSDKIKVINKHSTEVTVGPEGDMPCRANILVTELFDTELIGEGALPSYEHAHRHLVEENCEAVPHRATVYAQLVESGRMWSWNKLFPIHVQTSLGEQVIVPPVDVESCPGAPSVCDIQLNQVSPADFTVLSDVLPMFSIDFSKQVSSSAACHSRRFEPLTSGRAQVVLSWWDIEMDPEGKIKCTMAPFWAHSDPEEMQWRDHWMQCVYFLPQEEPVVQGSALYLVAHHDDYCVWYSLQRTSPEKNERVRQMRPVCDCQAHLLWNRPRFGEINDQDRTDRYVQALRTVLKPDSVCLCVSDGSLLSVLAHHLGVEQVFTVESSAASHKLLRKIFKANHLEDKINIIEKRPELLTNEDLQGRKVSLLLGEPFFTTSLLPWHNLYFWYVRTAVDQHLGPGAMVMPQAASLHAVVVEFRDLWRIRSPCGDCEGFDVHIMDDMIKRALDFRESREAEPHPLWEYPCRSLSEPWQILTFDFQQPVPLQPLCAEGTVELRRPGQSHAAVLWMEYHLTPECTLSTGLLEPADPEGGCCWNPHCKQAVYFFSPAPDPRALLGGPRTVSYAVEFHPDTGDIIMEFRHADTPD
# EXPERIMENT_NOTES: Radioisotope-based filter-binding (HotSpot) assay, PRMT7
# CONDITION_SET: IC50 PRMT7 (Figure 5 heatmap), radioisotope-based filter assay
MEASURED_QUANTITY: pIC50
Here pIC50 is given on a logarithmic scale as minus log10 of the concentration in mol/L.

Which value of pIC50 has been reported for COC(=O)c1cc(O)c2cc(NC(=O)NCCCCCCNC(=N)NC[C@H]3O[C@@H](n4cnc5c(N)ncnc54)[C@H](O)[C@@H]3O)ccc2c1 [12d] in the records?
6.38

----------
# MEASURED_ON: PRMT5/MEP50 complex (Homo sapiens, UniProt O14744)
# Sequence (O14744 2-637): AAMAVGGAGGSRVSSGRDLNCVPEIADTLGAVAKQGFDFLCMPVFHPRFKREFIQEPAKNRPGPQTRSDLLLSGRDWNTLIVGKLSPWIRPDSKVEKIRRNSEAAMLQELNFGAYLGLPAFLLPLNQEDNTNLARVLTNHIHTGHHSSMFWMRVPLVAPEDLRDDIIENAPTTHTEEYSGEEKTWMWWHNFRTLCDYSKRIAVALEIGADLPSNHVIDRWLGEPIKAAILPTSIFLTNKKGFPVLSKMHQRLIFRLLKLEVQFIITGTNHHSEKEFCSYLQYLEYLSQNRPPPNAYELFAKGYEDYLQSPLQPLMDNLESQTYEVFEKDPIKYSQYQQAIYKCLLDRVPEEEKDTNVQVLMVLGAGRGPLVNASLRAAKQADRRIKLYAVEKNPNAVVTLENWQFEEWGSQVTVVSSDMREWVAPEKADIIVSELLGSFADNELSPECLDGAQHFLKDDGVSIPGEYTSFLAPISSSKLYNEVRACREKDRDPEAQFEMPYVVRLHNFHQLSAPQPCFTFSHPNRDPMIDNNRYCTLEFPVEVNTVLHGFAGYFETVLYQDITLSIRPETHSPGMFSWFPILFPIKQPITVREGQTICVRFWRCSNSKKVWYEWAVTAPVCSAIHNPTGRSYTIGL
# Sequence (Q9BQA1 2-342 partner limits assumed): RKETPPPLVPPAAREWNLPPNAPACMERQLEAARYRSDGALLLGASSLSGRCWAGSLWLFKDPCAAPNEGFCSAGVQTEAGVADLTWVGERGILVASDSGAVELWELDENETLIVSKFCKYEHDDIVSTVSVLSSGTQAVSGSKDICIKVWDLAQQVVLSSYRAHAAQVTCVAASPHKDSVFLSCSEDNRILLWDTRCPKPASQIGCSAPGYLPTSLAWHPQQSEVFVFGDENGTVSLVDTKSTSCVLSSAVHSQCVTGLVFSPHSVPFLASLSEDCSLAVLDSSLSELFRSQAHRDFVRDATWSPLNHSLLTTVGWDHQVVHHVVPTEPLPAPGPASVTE
# EXPERIMENT_NOTES: Radioisotope-based filter-binding (HotSpot) assay, PRMT5
# CONDITION_SET: read-out: IC50 (μM) PRMT5; radioisotope-based filter assay; 5 μM histone H2A; 1 μM 3H-SAM
MEASURED_QUANTITY: IC50 (µM)
Response body: numeric value in µM, unit text excluded.

Previously resolved entries follow.
# COMPOUND, MEASURED_QUANTITY, NUMERIC_RESULT
data = [
    ("COC(=O)c1cc(O)c2cc(NC(=O)NCCCNC(=N)NC[C@H]3O[C@@H](n4cnc5c(N)ncnc54)[C@H](O)[C@@H]3O)ccc2c1 [12a]", "IC50", 52.1),
    ("COC(=O)c1cc(O)c2cc(NC(=O)NCCCCNC(=N)NC[C@H]3O[C@@H](n4cnc5c(N)ncnc54)[C@H](O)[C@@H]3O)ccc2c1 [12b]", "IC50", 76.7),
    ("COC(=O)c1cc(O)c2cc(NC(=O)NCCCCCNC(=N)NC[C@H]3O[C@@H](n4cnc5c(N)ncnc54)[C@H](O)[C@@H]3O)ccc2c1 [12c]", "IC50", 51.4),
]

Moving on to the next compound.
Entry COC(=O)c1cc(O)c2cc(NC(=O)NCCCCNC(=N)NC/C=C/[C@H]3O[C@@H](n4cnc5c(N)ncnc54)[C@H](O)[C@@H]3O)ccc2c1 [12h] has what IC50?
1.46

----------
# MEASURED_ON: PRMT4 (Homo sapiens)
# EXPERIMENT_NOTES: Radioisotope-based filter-binding (HotSpot) assay, PRMT4
# CONDITION_SET: ratio IC50 PRMT3 / IC50 PRMT4
MEASURED_QUANTITY: selectivity index for PRMT4 vs other PRMTs: PRMT3
Response field accepts a number only; no unit should be typed.

# COMPOUND, NUMERIC_RESULT
rows = [
    ("COC(=O)c1cc(O)c2cc(NC(=O)NCCCCCNC(=N)NC[C@H]3O[C@@H](n4cnc5c(N)ncnc54)[C@H](O)[C@@H]3O)ccc2c1 [12c]", 51),
]

Requested field: selectivity index for PRMT4 vs other PRMTs: PRMT3. Item: COC(=O)c1cc(O)c2cc(NC(=O)NCCCCNC(=N)NCCC[C@H]3O[C@@H](n4cnc5c(N)ncnc54)[C@H](O)[C@@H]3O)ccc2c1 [12g]
1583

Endpoint output: selectivity index for PRMT4 vs other PRMTs: PRMT3 of COC(=O)c1cc(O)c2cc(NC(=O)NCCCCCCCNC(=N)NC[C@H]3O[C@@H](n4cnc5c(N)ncnc54)[C@H](O)[C@@H]3O)ccc2c1 [12e] . Value?
70

For the compound shown here, COC(=O)c1cc(O)c2cc(NC(=O)NCCCCNC(=N)NCC[C@H]3O[C@@H](n4cnc5c(N)ncnc54)[C@H](O)[C@@H]3O)ccc2c1 [12f] , give the reported selectivity index for PRMT4 vs other PRMTs: PRMT3.
1082

----------
# MEASURED_ON: PRMT3 (Homo sapiens, UniProt O60678)
# Sequence (O60678 2-531): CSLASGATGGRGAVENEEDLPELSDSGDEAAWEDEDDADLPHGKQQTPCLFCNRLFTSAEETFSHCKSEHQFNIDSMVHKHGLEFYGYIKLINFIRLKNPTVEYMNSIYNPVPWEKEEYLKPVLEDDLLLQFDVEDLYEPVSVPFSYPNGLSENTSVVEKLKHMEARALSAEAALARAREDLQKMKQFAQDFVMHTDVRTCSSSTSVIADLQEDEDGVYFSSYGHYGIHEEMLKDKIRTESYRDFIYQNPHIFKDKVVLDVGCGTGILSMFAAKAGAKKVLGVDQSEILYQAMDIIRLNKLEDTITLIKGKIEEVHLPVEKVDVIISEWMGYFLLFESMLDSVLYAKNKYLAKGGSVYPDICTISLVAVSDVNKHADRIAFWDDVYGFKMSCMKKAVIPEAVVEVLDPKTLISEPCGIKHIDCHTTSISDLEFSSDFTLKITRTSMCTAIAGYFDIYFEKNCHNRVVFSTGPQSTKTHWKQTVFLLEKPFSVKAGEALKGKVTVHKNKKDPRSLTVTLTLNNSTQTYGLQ
# EXPERIMENT_NOTES: Radioisotope-based filter-binding (HotSpot) assay, PRMT3
# CONDITION_SET: read-out: IC50 (μM) PRMT3; radioisotope-based filter assay; 5 μM histone H4; 1 μM 3H-SAM
# log10(IC50) values compiled below
Heads up, the numbers here are log10 of IC50 in µM units.

# annotated cases, reported log10(IC50) shown
# MOLECULE, MEASURED_ON, MEASURED_QUANTITY, NUMERIC_RESULT
measured = [
    ("COC(=O)c1cc(O)c2cc(NC(=O)NCCCCCNC(=N)NC[C@H]3O[C@@H](n4cnc5c(N)ncnc54)[C@H](O)[C@@H]3O)ccc2c1 [12c]", "PRMT3 (Homo sapiens, UniProt O60678)", "log10(IC50)", 1.33),
    ("COC(=O)c1cc(O)c2cc(NC(=O)NCCCCNC(=N)NC/C=C/[C@H]3O[C@@H](n4cnc5c(N)ncnc54)[C@H](O)[C@@H]3O)ccc2c1 [12h]", "PRMT3 (Homo sapiens, UniProt O60678)", "log10(IC50)", 0.61),
    ("COC(=O)c1cc(O)c2cc(NC(=O)NCCCNC(=N)NC[C@H]3O[C@@H](n4cnc5c(N)ncnc54)[C@H](O)[C@@H]3O)ccc2c1 [12a]", "PRMT3 (Homo sapiens, UniProt O60678)", "log10(IC50)", 1.76),
]

Find the recorded log10(IC50) belonging to COC(=O)c1cc(O)c2cc(NC(=O)NCCCCNC(=N)NC[C@H]3O[C@@H](n4cnc5c(N)ncnc54)[C@H](O)[C@@H]3O)ccc2c1 [12b] and report it.
1.64

For COC(=O)c1cc(O)c2cc(NC(=O)NCCCCNC(=N)NCC[C@H]3O[C@@H](n4cnc5c(N)ncnc54)[C@H](O)[C@@H]3O)ccc2c1 [12f] , what is its reported log10(IC50)?
1.02

Record request: log10(IC50) value, item COC(=O)c1cc(O)c2cc(NC(=O)NCCCCCCCNC(=N)NC[C@H]3O[C@@H](n4cnc5c(N)ncnc54)[C@H](O)[C@@H]3O)ccc2c1 [12e]
1.09

Sample COC(=O)c1cc(O)c2cc(NC(=O)NCCCCNC(=N)NCCC[C@H]3O[C@@H](n4cnc5c(N)ncnc54)[C@H](O)[C@@H]3O)ccc2c1 [12g] — what was its log10(IC50)?
1.12

----------
Reported values of SI PRMT6 (Figure 5 heatmap) for individual entries
# MEASURED_ON: PRMT4 (Homo sapiens, UniProt Q86X55)
# Sequence (Q86X55 2-608): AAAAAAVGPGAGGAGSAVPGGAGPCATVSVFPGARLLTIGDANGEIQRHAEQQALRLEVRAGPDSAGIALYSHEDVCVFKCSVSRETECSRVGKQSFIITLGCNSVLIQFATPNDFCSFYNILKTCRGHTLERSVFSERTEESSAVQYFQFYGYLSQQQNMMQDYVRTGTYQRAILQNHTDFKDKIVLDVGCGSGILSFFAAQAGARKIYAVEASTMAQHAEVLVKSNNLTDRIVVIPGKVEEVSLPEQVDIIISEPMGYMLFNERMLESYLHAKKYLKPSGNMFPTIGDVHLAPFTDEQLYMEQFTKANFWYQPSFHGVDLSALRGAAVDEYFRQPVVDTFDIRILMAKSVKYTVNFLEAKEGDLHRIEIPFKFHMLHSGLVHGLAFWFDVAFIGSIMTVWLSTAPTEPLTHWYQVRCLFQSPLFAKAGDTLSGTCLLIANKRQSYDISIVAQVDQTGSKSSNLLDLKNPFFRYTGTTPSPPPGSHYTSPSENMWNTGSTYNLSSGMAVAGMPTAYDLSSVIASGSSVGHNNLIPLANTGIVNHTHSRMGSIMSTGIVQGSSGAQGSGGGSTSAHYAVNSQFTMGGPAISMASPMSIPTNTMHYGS
# EXPERIMENT_NOTES: Radioisotope-based filter-binding (HotSpot) assay, PRMT4
# CONDITION_SET: selectivity index for PRMT4 over PRMT6
Quick note: give the figure in fold, leave out the unit.

# COMPOUND, UNIT_SPEC, SI PRMT6 (Figure 5 heatmap)
records = [
    ("COC(=O)c1cc(O)c2cc(NC(=O)NCCCCCCCNC(=N)NC[C@H]3O[C@@H](n4cnc5c(N)ncnc54)[C@H](O)[C@@H]3O)ccc2c1 [12e]", "fold", 202),
]

Requested read-out: SI PRMT6 (Figure 5 heatmap). Entry: COC(=O)c1cc(O)c2cc(NC(=O)NCCCCNC(=N)NCCC[C@H]3O[C@@H](n4cnc5c(N)ncnc54)[C@H](O)[C@@H]3O)ccc2c1 [12g]
517

The reported numbers originate from paper PMC9469100.
